SYSTEM TESTED: Isoleucine--tRNA ligase (Staphylococcus aureus, UniProt P41972)
PROTOCOL SUMMARY: Inhibition concentration against isoleucyl tRNA synthetase from Staphylococcus aureus NCTC 6571
PROPERTY LABEL: IC50 (nM)

C[C@H]([C@@H]1O[C@H]1C[C@H]1CO[C@@H](Cc2csc(-c3ccccc3)n2)[C@H](O)[C@@H]1O)[C@H](C)O	14.3

---

Test system: Staphylococcus aureus
PROTOCOL SUMMARY: minimum inhibitory concentration (MIC) against Staphylococcus aureus NCTC 6571.
Type: functional
PROPERTY LABEL: MIC (ug m1 l-1)

C[C@H]([C@@H]1O[C@H]1C[C@H]1CO[C@@H](Cc2cc(-c3ccccc3)no2)[C@H](O)[C@@H]1O)[C@H](C)O	4
C/C(=C\C(=O)OCCCCCCCCC(=O)O)C[C@@H]1OC[C@H](C[C@@H]2O[C@H]2[C@@H](C)[C@H](C)O)[C@@H](O)[C@H]1O	0.13
C[C@H]([C@@H]1O[C@H]1C[C@H]1CO[C@@H](Cc2nnc(-c3ccccc3)o2)[C@H](O)[C@@H]1O)[C@H](C)O	8

---

SYSTEM TESTED: Isoleucine--tRNA ligase (Staphylococcus aureus, UniProt P41972)
Sequence (P41972 whole entry): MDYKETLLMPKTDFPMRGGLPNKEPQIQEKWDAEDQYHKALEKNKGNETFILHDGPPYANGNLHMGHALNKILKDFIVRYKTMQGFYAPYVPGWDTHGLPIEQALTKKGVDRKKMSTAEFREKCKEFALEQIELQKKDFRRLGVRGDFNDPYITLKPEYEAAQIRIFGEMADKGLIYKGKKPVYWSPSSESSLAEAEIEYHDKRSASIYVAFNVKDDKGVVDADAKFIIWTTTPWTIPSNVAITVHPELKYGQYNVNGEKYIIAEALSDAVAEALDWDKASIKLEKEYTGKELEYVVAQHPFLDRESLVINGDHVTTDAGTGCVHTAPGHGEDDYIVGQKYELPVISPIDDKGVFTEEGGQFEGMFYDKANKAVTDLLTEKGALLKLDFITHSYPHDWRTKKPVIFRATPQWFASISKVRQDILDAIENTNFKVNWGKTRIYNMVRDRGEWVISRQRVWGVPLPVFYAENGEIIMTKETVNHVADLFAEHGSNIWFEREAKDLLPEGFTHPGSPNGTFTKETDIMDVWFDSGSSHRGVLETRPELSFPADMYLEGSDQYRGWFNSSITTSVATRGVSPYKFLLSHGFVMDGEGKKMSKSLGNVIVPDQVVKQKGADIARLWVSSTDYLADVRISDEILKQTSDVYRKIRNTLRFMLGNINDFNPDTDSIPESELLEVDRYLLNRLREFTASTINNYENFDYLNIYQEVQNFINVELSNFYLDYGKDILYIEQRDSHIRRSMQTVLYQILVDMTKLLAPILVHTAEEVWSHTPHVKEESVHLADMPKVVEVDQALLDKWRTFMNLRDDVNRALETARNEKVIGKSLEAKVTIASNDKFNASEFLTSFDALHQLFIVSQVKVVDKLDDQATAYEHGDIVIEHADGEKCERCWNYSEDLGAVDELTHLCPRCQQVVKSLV
PROTOCOL SUMMARY: Inhibition concentration against Isoleucyl-tRNA synthetase from Staphylococcus aureus NCTC 6571
pIC50: −log10 of the molar value.
Consider the following compounds and their measured pIC50 readings.
PROPERTY LABEL: pIC50

C[C@H]([C@@H]1O[C@H]1C[C@H]1CO[C@@H](Cn2nnc(-c3ccccc3)n2)[C@H](O)[C@@H]1O)[C@H](C)O	8.05
CCOC(=O)/C=C(\C)C[C@@H]1OC[C@H](C[C@@H]2O[C@H]2[C@@H](C)[C@H](C)O)[C@@H](O)[C@H]1O	8.53
C[C@H]([C@@H]1O[C@H]1C[C@H]1CO[C@@H](Cc2nnc(-c3ccccc3)o2)[C@H](O)[C@@H]1O)[C@H](C)O	8.28
C/C(=C\C(=O)OCCCCCCCCC(=O)O)C[C@@H]1OC[C@H](C[C@@H]2O[C@H]2[C@@H](C)[C@H](C)O)[C@@H](O)[C@H]1O [MUPIROCIN]	8.77
C[C@H]([C@@H]1O[C@H]1C[C@H]1CO[C@@H](Cc2cnc(-c3ccccc3)o2)[C@H](O)[C@@H]1O)[C@H](C)O	8.33
C[C@H]([C@@H]1O[C@H]1C[C@H]1CO[C@@H](Cc2nc(-c3ccccc3)no2)[C@H](O)[C@@H]1O)[C@H](C)O	8.76
C[C@H]([C@@H]1O[C@H]1C[C@H]1CO[C@@H](Cc2cc(-c3ccccc3)no2)[C@H](O)[C@@H]1O)[C@H](C)O	7.88

---

Tested on: Staphylococcus aureus
PROTOCOL SUMMARY: minimum inhibitory concentration (MIC) against Staphylococcus aureus NCTC 6571.
Assay type: functional
Consider the following molecules and their measured MIC readings.
PROPERTY LABEL: MIC (ug m1 l-1)

C[C@H]([C@@H]1O[C@H]1C[C@H]1CO[C@@H](Cc2cnc(-c3ccccc3)o2)[C@H](O)[C@@H]1O)[C@H](C)O	2
CCOC(=O)/C=C(\C)C[C@@H]1OC[C@H](C[C@@H]2O[C@H]2[C@@H](C)[C@H](C)O)[C@@H](O)[C@H]1O	0.5
C[C@H]([C@@H]1O[C@H]1C[C@H]1CO[C@@H](Cn2nnc(-c3ccccc3)n2)[C@H](O)[C@@H]1O)[C@H](C)O	8
C[C@H]([C@@H]1O[C@H]1C[C@H]1CO[C@@H](Cc2nc(-c3ccccc3)no2)[C@H](O)[C@@H]1O)[C@H](C)O	4

---

System: Staphylococcus aureus
PROTOCOL SUMMARY: minimum inhibitory concentration (MIC) against Staphylococcus aureus NCTC 6571.
Format: functional
PROPERTY LABEL: MIC

C[C@H]([C@@H]1O[C@H]1C[C@H]1CO[C@@H](Cc2cc(-c3ccccc3)on2)[C@H](O)[C@@H]1O)[C@H](C)O	>64 ug m1 l-1
C[C@H]([C@@H]1O[C@H]1C[C@H]1CO[C@@H](Cc2ncc(-c3ccccc3)o2)[C@H](O)[C@@H]1O)[C@H](C)O	>64 ug m1 l-1
C[C@H]([C@@H]1O[C@H]1C[C@H]1CO[C@@H](Cc2csc(-c3ccccc3)n2)[C@H](O)[C@@H]1O)[C@H](C)O	>64 ug m1 l-1
